This collection of values is drawn from patent US10562935B2.

- ASSAY COMMENT: Circular dichroism (CD) spectroscopy of HABD2 peptides in Milli-Q water (Example 1)
- Assay type: physicochemical
- RUN CONDITIONS: 0.5 mM in Milli-Q water
Bridges are numbered along the chain shown (N, C = ends).
Reported [θ]222/[θ]208 ratio of ellipticities by item:

SUBSTANCE | [θ]222/[θ]208 ratio of ellipticities
H-(cyclo-7,11)-VSKLRS[ELVKK]KQN-NH2 (H-VSKLRSELVKKKQN-NH2; lactam 7-11; SMILES CC(C)C[C@H](NC(=O)[C@H](CCCCN)NC(=O)[C@H](CO)NC(=O)[C@@H](N)C(C)C)C(=O)N[C@@H](CCCNC(=N)N)C(=O)N[C@@H](CO)C(=O)N[C@H]1CCC(=O)NCCCC[C@@H](C(=O)N[C@@H](CCCCN)C(=O)N[C@@H](CCC(N)=O)C(=O)N[C@@H](CC(N)=O)C(N)=O)NC(=O)[C@H](CCCCN)NC(=O)[C@H](C(C)C)NC(=O)[C@H](CC(C)C)NC1=O) [Compound 136] | 0.30
H-(cyclo-6,10)-VSKLR[EQLVK]RKQN-NH2 (H-VSKLREQLVKRKQN-NH2; lactam 6-10; SMILES CC(C)C[C@H](NC(=O)[C@H](CCCCN)NC(=O)[C@H](CO)NC(=O)[C@@H](N)C(C)C)C(=O)N[C@@H](CCCNC(=N)N)C(=O)N[C@H]1CCC(=O)NCCCC[C@@H](C(=O)N[C@@H](CCCNC(=N)N)C(=O)N[C@@H](CCCCN)C(=O)N[C@@H](CCC(N)=O)C(=O)N[C@@H](CC(N)=O)C(N)=O)NC(=O)[C@H](C(C)C)NC(=O)[C@H](CC(C)C)NC(=O)[C@H](CCC(N)=O)NC1=O) [Compound 135] | 0.55
Ac-VSKLRSQLVKRKQN-NH2 [Compound 132] | 0.27
H-(cyclo-4,8)-VSK[ERSQK]VKRKQN-NH2 (H-VSKERSQKVKRKQN-NH2; lactam 4-8; SMILES CC(C)[C@H](N)C(=O)N[C@@H](CO)C(=O)N[C@@H](CCCCN)C(=O)N[C@H]1CCC(=O)NCCCC[C@@H](C(=O)N[C@H](C(=O)N[C@@H](CCCCN)C(=O)N[C@@H](CCCNC(=N)N)C(=O)N[C@@H](CCCCN)C(=O)N[C@@H](CCC(N)=O)C(=O)N[C@@H](CC(N)=O)C(N)=O)C(C)C)NC(=O)[C@H](CCC(N)=O)NC(=O)[C@H](CO)NC(=O)[C@H](CCCNC(=N)N)NC1=O) [Compound 133] | 0.45
H-(cyclo-5,9)-VSKL[ESQLK]KRKQN-NH2 (H-VSKLESQLKKRKQN-NH2; lactam 5-9; SMILES CC(C)C[C@@H]1NC(=O)[C@H](CCC(N)=O)NC(=O)[C@H](CO)NC(=O)[C@@H](NC(=O)[C@H](CC(C)C)NC(=O)[C@H](CCCCN)NC(=O)[C@H](CO)NC(=O)[C@@H](N)C(C)C)CCC(=O)NCCCC[C@@H](C(=O)N[C@@H](CCCCN)C(=O)N[C@@H](CCCNC(=N)N)C(=O)N[C@@H](CCCCN)C(=O)N[C@@H](CCC(N)=O)C(=O)N[C@@H](CC(N)=O)C(N)=O)NC1=O) [Compound 134] | 0.57

---

Reported Molar ellipticity [θ]208 by item:
- ASSAY COMMENT: Circular dichroism (CD) spectroscopy of HABD2 peptides in Milli-Q water (Example 1)
- Assay type: physicochemical
- RUN CONDITIONS: λ = 208 nm; 0.5 mM in Milli-Q water
- Text: In addition, a large mean residue ellipticity indicates greater α-helical character. […] This was predicted to be the case, as there is a lack of contributing residues that might form a hydrophobic core, thereby helping to stabilize the secondary structure of the linear peptide. For this reason, bridges were introduced into the peptides. […] A peptide's α-helicity can be quantified using equations 1-3: fH=[([θ]obs222−[θ]c)/([θ]max222−[θ]c)] […]
Bridges are numbered along the chain shown (N, C = ends).

SUBSTANCE | Molar ellipticity [θ]208
Ac-VSKLRSQLVKRKQN-NH2 [Compound 132] | −4944.38 deg cm^2 dmol^−1 residue^−1
H-(cyclo-5,9)-VSKL[ESQLK]KRKQN-NH2 (H-VSKLESQLKKRKQN-NH2; lactam 5-9; SMILES CC(C)C[C@@H]1NC(=O)[C@H](CCC(N)=O)NC(=O)[C@H](CO)NC(=O)[C@@H](NC(=O)[C@H](CC(C)C)NC(=O)[C@H](CCCCN)NC(=O)[C@H](CO)NC(=O)[C@@H](N)C(C)C)CCC(=O)NCCCC[C@@H](C(=O)N[C@@H](CCCCN)C(=O)N[C@@H](CCCNC(=N)N)C(=O)N[C@@H](CCCCN)C(=O)N[C@@H](CCC(N)=O)C(=O)N[C@@H](CC(N)=O)C(N)=O)NC1=O) [Compound 134] | −7685.97 deg cm^2 dmol^−1 residue^−1
H-(cyclo-7,11)-VSKLRS[ELVKK]KQN-NH2 (H-VSKLRSELVKKKQN-NH2; lactam 7-11; SMILES CC(C)C[C@H](NC(=O)[C@H](CCCCN)NC(=O)[C@H](CO)NC(=O)[C@@H](N)C(C)C)C(=O)N[C@@H](CCCNC(=N)N)C(=O)N[C@@H](CO)C(=O)N[C@H]1CCC(=O)NCCCC[C@@H](C(=O)N[C@@H](CCCCN)C(=O)N[C@@H](CCC(N)=O)C(=O)N[C@@H](CC(N)=O)C(N)=O)NC(=O)[C@H](CCCCN)NC(=O)[C@H](C(C)C)NC(=O)[C@H](CC(C)C)NC1=O) [Compound 136] | −5084.93 deg cm^2 dmol^−1 residue^−1
H-(cyclo-6,10)-VSKLR[EQLVK]RKQN-NH2 (H-VSKLREQLVKRKQN-NH2; lactam 6-10; SMILES CC(C)C[C@H](NC(=O)[C@H](CCCCN)NC(=O)[C@H](CO)NC(=O)[C@@H](N)C(C)C)C(=O)N[C@@H](CCCNC(=N)N)C(=O)N[C@H]1CCC(=O)NCCCC[C@@H](C(=O)N[C@@H](CCCNC(=N)N)C(=O)N[C@@H](CCCCN)C(=O)N[C@@H](CCC(N)=O)C(=O)N[C@@H](CC(N)=O)C(N)=O)NC(=O)[C@H](C(C)C)NC(=O)[C@H](CC(C)C)NC(=O)[C@H](CCC(N)=O)NC1=O) [Compound 135] | −7906.16 deg cm^2 dmol^−1 residue^−1
H-(cyclo-4,8)-VSK[ERSQK]VKRKQN-NH2 (H-VSKERSQKVKRKQN-NH2; lactam 4-8; SMILES CC(C)[C@H](N)C(=O)N[C@@H](CO)C(=O)N[C@@H](CCCCN)C(=O)N[C@H]1CCC(=O)NCCCC[C@@H](C(=O)N[C@H](C(=O)N[C@@H](CCCCN)C(=O)N[C@@H](CCCNC(=N)N)C(=O)N[C@@H](CCCCN)C(=O)N[C@@H](CCC(N)=O)C(=O)N[C@@H](CC(N)=O)C(N)=O)C(C)C)NC(=O)[C@H](CCC(N)=O)NC(=O)[C@H](CO)NC(=O)[C@H](CCCNC(=N)N)NC1=O) [Compound 133] | −5010.81 deg cm^2 dmol^−1 residue^−1

---

- ASSAY COMMENT: circular dichroism
- RUN CONDITIONS: water (methods paragraph says 0.1 M phosphate; tables say water); pH ns; 20 °C; 0.5 mM
Where a SMILES comes first, the peptide text is derived from it. Bridges are numbered along the chain shown (N, C = ends).
ASSAY READOUT: helicity (MRE222)

COMPOUND | MEAS VALUE
CC[C@H](C)[C@@H]1NC(=O)[C@@H](NC(=O)[C@H](CCC(N)=O)NC(=O)[C@H](CCCCN)NC(=O)[C@H](CC(C)C)NC(=O)[C@H](CC(N)=O)NC(C)=O)CCC(=O)NCCCC[C@@H](C(=O)N[C@H](C(=O)N[C@@H](CCCCN)C(=O)N[C@@H](CC(C)C)C(=O)N[C@@H](CCCCN)C(=O)N[C@@H](CC(=O)O)C(=O)N[C@@H](CCC(=O)O)C(N)=O)C(C)C)NC(=O)[C@H](Cc2c[nH]cn2)NC(=O)[C@H](CCCCN)NC1=O (Ac-NLKQEIKHKVKLKDE-NH2; lactam 5-9) | -2830
CC[C@H](C)[C@H](NC(=O)[C@H](CCCCN)NC(=O)[C@H](CCC(N)=O)NC(=O)[C@H](CCCCN)NC(=O)[C@H](CC(C)C)NC(=O)[C@H](CC(N)=O)NC(C)=O)C(=O)N[C@H]1CCC(=O)NCCCC[C@@H](C(=O)N[C@@H](CC(C)C)C(=O)N[C@@H](CCCCN)C(=O)N[C@@H](CC(=O)O)C(=O)N[C@@H](CCC(=O)O)C(N)=O)NC(=O)[C@H](C(C)C)NC(=O)[C@H](C(C)C)NC(=O)[C@H](Cc2c[nH]cn2)NC1=O (Ac-NLKQKIEHVVKLKDE-NH2; lactam 7-11) | -3850
